test: Cell Viability - HUV-EC-C (AID 542); conditions: HUV-EC-C endothelial cell viability, qHTS; series mostly up to 92.2 µM;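 note: cells exposed to compound for 40 hours; nearly all actives have a fitted effect of over 35% in size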
Inconclusive results are not listed. The source made the active and inactive calls. Calls come from the whole dose curve; as a rule, active = well fitted cell-killing curve with a large enough effect; inconclusive = small, poorly fitted or top-dose-only effect, or effect the other way; inactive = flat fitted curve, though single readings scatter.
RECORDED_METRIC: outcome

Consider the reported outcome for these molecules:
{"columns": ["MOLECULE", "outcome"],
 "data": [
  ["NCC(O)c1ccc(O)cc1 (stereo not given)", "inactive"],
  ["CCOP(=S)(OCC)Oc1cc(C)nc(C(C)C)n1", "inactive"],
  ["OCCOc1ccccc1", "inactive"],
  ["Oc1ccccc1-c1ccccc1", "inactive"]
]}

The record that follows has no outcome shown yet.
Quote outcome reported for CCCC(C)(COC(N)=O)COC(=O)NC(C)C (stereo not given) please.
inactive

====

system: C2A; experiment: qHTS profiling for inhibitors of Plasmodium falciparum proliferation (AID 504749); note: nearly all actives have a fitted effect of over 60% in size; settings: P. falciparum in erythrocytes, SYBR Green DNA, 72 h; series mostly up to 28.7 µM
Inconclusive results are not listed. Calls of active or inactive are those of the source. Calls follow the shape of the dose curve; as a rule, active = well fitted inhibition curve with a large enough effect; inconclusive = small, poorly fitted or top-dose-only effect; inactive = flat fitted curve, though single readings scatter.
Can you answer with just one of these options? active, inactive

{"columns": ["MOLECULE", "TARGET_UNDER_TEST", "CLASS_ASSIGNMENT"],
 "data": [
  ["CCOC(=O)C1(c2ccccc2)CCN(CCC(C#N)(c2ccccc2)c2ccccc2)CC1", "C2A", "active"],
  ["NP(N)(=O)NC(=O)c1ccc(F)cc1", "C2A", "inactive"],
  ["CC(=O)[C@H]1CC[C@H]2[C@@H]3CC[C@H]4C[C@](C)(O)CC[C@]4(C)[C@H]3CC[C@]12C", "C2A", "inactive"]
]}

In this assay, the call recorded for `C=C(C)[C@H]1Cc2c(ccc3c2O[C@@H]2COc4cc(OC)c(OC)cc4[C@@H]2C3=O)O1` was what?
inactive

====

experiment: Cell Viability - H-4-II-E (AID 543); settings: H-4-II-E rat hepatoma viability; series mostly up to 92.2 µM;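 note: cells exposed to compound for 40 hours; nearly all actives have a fitted effect of over 35% in size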
Inconclusive results are not listed. Activity calls are given as the source filed them. Calls come from the whole dose curve; as a rule, active = well fitted cell-killing curve with a large enough effect; inconclusive = small, poorly fitted or top-dose-only effect; inactive = flat fitted curve, though single readings scatter.
Just give me one of these, please: label 1 = active, label 0 = inactive

Some solved entries appear below for comparison.
{"columns": ["MOLECULE", "CLASS_ASSIGNMENT"],
 "data": [
  ["Clc1ccc(COC(Cn2ccnc2)c2ccc(Cl)cc2Cl)cc1 (stereo unspecified)", "label 1"],
  ["CCCC(C)(COC(N)=O)COC(=O)NC(C)C (stereo unspecified)", "label 0"]
]}

Could you please tell me the result logged for `OCCOc1ccccc1` in this assay?
label 0

Hey, what did the test say about `Oc1ccc(Cl)cc1Cc1ccccc1` ?
label 0

How was `Oc1ccccc1-c1ccccc1` classified in this test?
label 0

Per the records of this test, what outcome belongs to `CCOP(=S)(OCC)Oc1cc(C)nc(C(C)C)n1` ?
label 0

====

assay: qHTS of pediatric cancer cell lines to identify multiple opportunities for drug repurposing: Primary screen for NB1643 cells (AID 1347099); conditions: NB1643 neuroblastoma viability, CellTiter-Glo luminescence, 48 h; series mostly up to 46 µM; note: nearly all actives have a fitted effect of over 50% in size
Records with an inconclusive call do not appear. The source made the active and inactive calls. Calls come from the whole dose curve; as a rule, active = well fitted cell-killing curve with a large enough effect; inconclusive = small, poorly fitted or top-dose-only effect; inactive = no such curve, though single readings can be large or run the other way.
Please reply with one of these outcomes: true = active, false = inactive

Reference set (3 entries):
{"columns": ["COMPOUND", "CLASS_ASSIGNMENT"],
 "data": [
  ["NN=C(N)N", "false"],
  ["c1ccc(C2CC2)c(OCC2=NCCN2)c1", "false"],
  ["C[C@@H]1[C@@H](CC(C[C@H]2O[C@@H]3O[C@]4(C)CC[C@@H]5[C@H](C)CC[C@@H]([C@H]2C)[C@@]35OO4)C[S+](=O)([O-])c2ccc(COC(=O)N(C)C)cc2)O[C@@H]2O[C@]3(C)CC[C@H]4[C@H](C)CC[C@@H]1[C@@]24OO3 (stereo not given in full)", "true"]
]}

For `Cc1ncc(CNC(=O)N(CCCl)N=O)c(N)n1` , which call appears in the assay record?
false

Hi, do you know how `CN(C)CCc1ccc(O)cc1` came out in this test?
false

# lookup: test call for `Oc1ccc(Cl)cc1Cc1ccccc1`
false

Dear colleague, could you share the recorded outcome for `Cc1ccc(S(=O)(=O)N[C@@H](CCCCN)C(=O)CCl)cc1` when you have a moment?
false

Hi, do you know how `Cc1cccc(C)c1NC(=O)CN1CCCC1=O` came out in this test?
false

Given COC1(CS(=O)c2ccccc2)CCN(CCc2c[nH]c3ccc(F)cc23)CC1 (stereo not given) , state the outcome it received in this test.
false

What was the test verdict on `Fc1ccc(C(OCCN2CCN(CCCc3ccccc3)CC2)c2ccc(F)cc2)cc1` ?
true
